# protocol.summary: chemical genetic growth profiling, strain panel (AID 1159580);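 further: tested at 20 µM; growth read once vehicle control cultures reached saturation at 30 °C; 1 = growth at the plate median or of vehicle wells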
# details: S. cerevisiae deletion strains, growth OD, locus YER155C, strain BEM2
About 2,000 (36%) of roughly 5,500 compounds were called active. Not shown: some 18% with an inconclusive outcome. No stated cut-off is given here; in the data, active means normalized growth mostly below about 0.91 (no sharp cut-off); inconclusive means no clear call, values can overlap the other calls; inactive means mostly above about 0.92. The list shows a part of the results.
The categories you may choose from are active, inactive

Record excerpt, results attached:
| compound | cat |
| --- | --- |
| CC[C@]12CCCN3CCc4c(n(c5ccccc45)[C@](O)(C(=O)OC)C1)[C@@H]32 | inactive |
| COc1ccc2c(c1O)-c1c(OC)c(OC)cc3c1[C@H](C2)N(C)CC3 | inactive |
| CC(C)C1=CC2=CCC3[C@](C)(CCC[C@]3(C)C(=O)O)C2CC1 (stereo not given in full) | inactive |

Identify the outcome logged in this assay for the compound shown: "c1cc2c(cc1[C@H]1OC[C@H]3[C@@H]1CO[C@H]3c1ccc3c(c1)OCO3)OCO2"
active

Another compound to look at: "O=c1cccc2n1C[C@H]1CNCC2C1"
inactive

Another compound to look at: "c1ccc2[nH]c(-c3cscn3)nc2c1"
inactive

Another compound to look at: COc1cc(C)c2c(c1C=O)Oc1c(c(C)c(O)c3c1C(O)OC3=O)OC2=O (stereo not given)
inactive

Another compound to look at: CC(=O)Oc1cc(C)c2c(c1C(OC(C)=O)OC(C)=O)Oc1c(c(C)c(OC(C)=O)c3c1C(OC(C)=O)OC3=O)OC2=O (stereo not given)
inactive

Another compound to look at: "CC[C@]12CCCN3CCc4c(n(c5ccccc45)C(=O)C1)[C@@H]32"
inactive

Another compound to look at: CN1CCc2cccc3c2C1Cc1ccc(O)c(O)c1-3 (stereo not given)
inactive

###

# protocol.summary: chemical genetic growth profiling, strain panel (AID 1159580);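 further: tested at 20 µM; growth read once vehicle control cultures reached saturation at 30 °C; 1 = growth at the plate median or of vehicle wells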
# details: S. cerevisiae deletion strains, growth OD, locus YOL012C, strain htz1
In all, about 5,500 compounds went through this assay and about 2,000 (36%) were called active. About 18% were inconclusive and are not listed. The list shows a part of the results.
Lab note: cut-off is 1. Strictly less in normalized growth is met. Exactly 1 or more is not met.

Record excerpt, results attached:
| compound | cat |
| --- | --- |
| Oc1ccc(/C=C/c2cc(O)cc(O)c2)cc1 | met |
| CCn1cc(C(=O)O)c(=O)c2cnc(N3CCCC3)nc21 | not met |
| CC(=O)C1=C(O)C2C3c4c[nH]c5cccc(c45)CC3C(C)(C)N2C1=O (stereo not given) | met |
| c1ccc2[nH]c(-c3cscn3)nc2c1 | not met |

Say whether its normalized growth is strictly beneath 1. Entry: Cc1cccc(CN2CCN(C(c3ccccc3)c3ccc(Cl)cc3)CC2)c1 (stereo not given)
met

Another compound to look at: "COC(=O)[C@H]1[C@H]2C[C@@H]3c4[nH]c5cc(OC)ccc5c4CCN3C[C@H]2C[C@@H](OC(=O)c2cc(OC)c(OC)c(OC)c2)[C@@H]1OC"
met

Another compound to look at: "CCn1cc(C(=O)O)c(=O)c2cc3c(cc21)OCO3"
not met

###

# protocol.summary: chemical genetic growth profiling, strain panel (AID 1159580);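 further: tested at 20 µM; growth read once vehicle control cultures reached saturation at 30 °C; 1 = growth at the plate median or of vehicle wells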
# details: S. cerevisiae deletion strains, growth OD, locus YOR069W, strain VPS5, hits give low values
About 2,000 (36%) of roughly 5,500 compounds were called active. About 18% were inconclusive and are not listed. This is one part of the list.
Lab note: cut-off is 1. Strictly less in normalized growth is true (1). Exactly 1 or more is false (0).

Record excerpt, results attached:
| compound | cat |
| --- | --- |
| CC(Cc1ccc(O)c(O)c1)(NN)C(=O)O (centres undefined) | false (0) |
| Cc1cccc(CN2CCN(C(c3ccccc3)c3ccc(Cl)cc3)CC2)c1 (centres undefined) | true (1) |
| CCCCC(CC)CN=C(N)NC(N)=NCCCCCCN=C(N)NC(N)=NCC(CC)CCCC (centres undefined) | true (1) |

Say whether its normalized growth is strictly beneath 1. Entry: "c1cc2c(cc1[C@H]1OC[C@H]3[C@@H]1CO[C@H]3c1ccc3c(c1)OCO3)OCO2"
true (1)
